The reported numbers originate from patent WO2013139956A1.

Target: T1, peptide EISQEVAAAVFPSY (SEQ ID NO:80), N-terminally biotinylated (human)
T1 peptide: Biotin-EISQEVAAAVFPSY
Assay: ELISA, biotin-peptide on neutravidin plate, antibody 1 ug/ml
Ends that are not written are not given here. * marks the point of attachment. Biotin = O=C1N[C@H]2[C@H](CS[C@H]2CCCCC(=O)*)N1
Each item that follows carries a reported absorbance 450 nm minus 540 nm.
Respond with the bare value in absorbance.

Answered examples (5):
binder	parameter	observed_result
anti-lactadherin antibody 416H9 (antibody, IgG1, V domains shown, also called hybridoma 416H9; LMBP 9492CB) VH: QVTLKESGPGVLQSSQTLSLTCSFSGFSLSTSGLGVIWIRQPSGAGLEWLAQIYWDDNKRYNPSLKSRLTISKDTSRNQVFLKITPVDTADTATYYCARRTFYDYDEGFYAMDYWGQGTSVTVSS VL: DIQMTQTTSSLSASLGDRVTITCRASQDISNYLNWYQQKPDGTIKLLIYYASRLHSGVPSRFSGSGSGTDYSLTISNLEQEDIATYFCQQGNTLPLTFGAGTKLELKR	absorbance 450 nm minus 540 nm	0.02
anti-lactadherin antibody 399A12 (antibody, V domains shown, Murine monoclonal, kappa light chain; Variable regions identical to those of 416H9; also called hybridoma 399A12; LMBP 9491CB) VH: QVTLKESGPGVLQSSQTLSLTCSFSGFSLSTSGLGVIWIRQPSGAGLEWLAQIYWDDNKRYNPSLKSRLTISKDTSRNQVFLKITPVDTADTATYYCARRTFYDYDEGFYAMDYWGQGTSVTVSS VL: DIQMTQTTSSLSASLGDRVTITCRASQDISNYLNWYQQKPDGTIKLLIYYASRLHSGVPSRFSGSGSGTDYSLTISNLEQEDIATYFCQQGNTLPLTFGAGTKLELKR	absorbance 450 nm minus 540 nm	0.02
anti-lactadherin antibody 215A9 (antibody, IgG1, V domains shown, also called 2154A9; hybridoma 215A9) VH: QVSLKESGPGILQSSQTLSLTCSFSGFSLSTSGMGVSWIRQPSGKGLEWLAHIYWNDDKRYNPSLKSRLTISKDTSRDQVFLKITSVDTADTATYFCARRPRFYRDYDEGIDFWGQGTTLTVSS VL: QAVVTQESALTTSPGETVTLTCRSSTGAVTTNNYANWVQEKPDHLFTGLIGGTNNRTPGVPARFSGSLIGDKAALTITGAQTEDEAIYFCALWYSNLWVFGGGTKLTVLG	absorbance 450 nm minus 540 nm	0.02
anti-lactadherin antibody 346B6 (antibody, IgG1, V domains shown, VH identical to that of 311A7; also called hybridoma 346B6; LMBP 9490CB) VH: EFQLQQSGPELVKPGASVRISCKASGYSFTDYNMNWVKQSDGKTLEWIGVINPDYGTTNNNQRFRGKATLTLDLSSSTAYMQLNSLTSEDSAVYYCARGGDYGAGYALDYWGQGTSVTVSS VL: QIVLTQSPAIMSASPGEKVTMTCSASSSVSYMYWYQQKPGSSPRLLIYDTSNLASGVPVRFSGSGSGTSYSLTISRMEAEDAATYYCQQWSSYPPTFGAGTKLELKR	absorbance 450 nm minus 540 nm	0.01
huMc3 antibody (antibody, V domains shown) VH: EVQLVQSGAEVKKPGASVKVSCKASGYSFTGYTMHWVKQSPGMNLEWIGLINPYNGGTVYNQKFQDKATLTVDKSTSTAYMELSSLRSEDTAVYFCARRWRYTMDYWGQGTLVTVSS VL: DIVMTQSPDSLAVSLGERATITCKASQDVSIGVAWYQQKPGQSPKLLIYSASSRYTGVPDRFSGSGSGTDFTLTISSLQAEDVAVYYCQQHYTSPFTFGSGTKVEIK	absorbance 450 nm minus 540 nm	0.04

Proceed to the following item.
Look up absorbance 450 nm minus 540 nm: anti-lactadherin antibody 311A7 (antibody, IgG1, V domains shown, also called murine 311A7; hybridoma 311A7) VH: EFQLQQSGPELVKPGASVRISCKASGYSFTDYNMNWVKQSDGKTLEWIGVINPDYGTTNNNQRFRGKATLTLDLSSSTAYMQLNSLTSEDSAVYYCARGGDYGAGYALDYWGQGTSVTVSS VL: QIVLTQSPAIMSASPGEKVTITCSASSSVSYMYWFQQKPGTSPKLWIYSTSNLASGVPARFSGSGSGTSYSLTISRMEAEDAATYYCQQRSSYPRTFGGGTKLEIKR
0.02
